# Tested on: Raw264.7 cells
# Recorded conditions: mouse, 5 days, 20 μM
Mark each entry Criterion met if its Primary QIM CellNb sits below 30, and Criterion not met for all others.

Is the reported Primary QIM CellNb for NNC(=O)c1ccc(COc2ccc3c(c2)CCC3)o1 strictly below 30?
Criterion not met

Is the reported Primary QIM CellNb for CC(NC(=O)c1ccc(C(C)(C)C)cc1)c1ccccc1 (centres unmarked) strictly below 30?
Criterion met

Is the reported Primary QIM CellNb for Oc1ccccc1/N=C/c1cc(Cl)cc(Cl)c1O strictly below 30?
Criterion met

Is the reported Primary QIM CellNb for O=C(N/N=C/c1cc(Br)cc([N+](=O)[O-])c1O)c1ccncc1 strictly below 30?
Criterion not met

Is the reported Primary QIM CellNb for CCCCN(CCCC)C(=O)c1ccc(C(C)(C)C)cc1 strictly below 30?
Criterion met

----------
# Test system: Raw264.7 cells
# Assay info: Cell number (CellNb) from image analysis of the phenotypic cell-based assay
# Recorded conditions: confirmation, 0.2 uM
Mark each entry label 1 if its QIM Confirm CellNb 0.2 uM sits below 300, and label 0 for all others.

Is the reported QIM Confirm CellNb 0.2 uM for NNC(=O)c1ccc(COc2ccc(F)cc2)o1 [IPK 000 124 65] strictly below 300?
label 1

Is the reported QIM Confirm CellNb 0.2 uM for O=[N+]([O-])c1cc(C(F)(F)F)cc([N+](=O)[O-])c1Sc1nc(-c2ccccc2)c[nH]1 [IPK 000 001 32] strictly below 300?
label 1

Is the reported QIM Confirm CellNb 0.2 uM for CC(C)c1ccc(CNC(=O)c2cc([N+](=O)[O-])cc([N+](=O)[O-])c2)cc1 [IPK 000 027 78] strictly below 300?
label 0

Is the reported QIM Confirm CellNb 0.2 uM for c1ccc(COc2ccc(NCCc3ccncc3)cc2)cc1 [IPK 000 016 00] strictly below 300?
label 1

Is the reported QIM Confirm CellNb 0.2 uM for O=C(N/N=C\c1ccc(Cl)s1)c1ccncc1 [IPK 000 009 42] strictly below 300?
label 0

Is the reported QIM Confirm CellNb 0.2 uM for Cc1ccc2ccc3ccc(C)nc3c2n1 [IPK 000 002 03] strictly below 300?
label 1

Is the reported QIM Confirm CellNb 0.2 uM for O=C(/C=C/c1ccc(Cl)cc1Cl)c1ccc(Cl)cc1 [IPK 000 015 36] strictly below 300?
label 0

Is the reported QIM Confirm CellNb 0.2 uM for O=C1Nc2ccccc2/C1=N/NC(=O)c1ccncc1 [IPK 000 006 35] strictly below 300?
label 1

Is the reported QIM Confirm CellNb 0.2 uM for CCOC(=O)/N=C(\NC(C)=O)c1cccc(Cl)c1 [IPK 000 033 61] strictly below 300?
label 1

----------
# System: Raw264.7 cells
# Assay info: Cell number (CellNb) from image analysis of the phenotypic cell-based assay
# Recorded conditions: primary screen, 20 μM
Hi, to clarify the labels: 1 (yes) covers Primary QIM CellNb from 200 upward, 0 (no) covers anything below 200.

Quick check, Primary QIM CellNb >= 200? Oc1ccc(Br)cc1/C=N/c1ccccc1O
0 (no)

Quick check, Primary QIM CellNb >= 200? O=C1c2ccccc2-c2nc3nonc3nc21
0 (no)

Quick check, Primary QIM CellNb >= 200? C/C(=N\NC(=O)c1cccc(F)c1)c1ccc2ccccc2c1
1 (yes)

Quick check, Primary QIM CellNb >= 200? O=C(NN=C1CCCCC1)c1ccncc1
1 (yes)

Quick check, Primary QIM CellNb >= 200? CCCCS(=O)(=O)/C=C\C=C\S(=O)(=O)CCCC
0 (no)

Quick check, Primary QIM CellNb >= 200? O=C(Oc1cccc2cccnc12)c1cccc([N+](=O)[O-])c1
0 (no)

Quick check, Primary QIM CellNb >= 200? Clc1ccc(Nc2nc3nonc3nc2Nc2ccc(Cl)c(Cl)c2)cc1Cl
0 (no)

Quick check, Primary QIM CellNb >= 200? COc1ccccc1/C=N/NC(=O)c1ccncc1
1 (yes)

Quick check, Primary QIM CellNb >= 200? CCCCOC(=O)C1(O)c2ccccc2-c2ccccc21
1 (yes)

Quick check, Primary QIM CellNb >= 200? O=C(/C=C/c1ccc(Cl)cc1Cl)c1ccc(Cl)cc1
0 (no)

Quick check, Primary QIM CellNb >= 200? NNC(=O)c1ccc(COc2ccc3c(c2)CCC3)o1
1 (yes)

Quick check, Primary QIM CellNb >= 200? Cc1ccc(NC(=O)c2ccc([N+](=O)[O-])cc2Cl)cc1Cl
1 (yes)

Quick check, Primary QIM CellNb >= 200? O=C(N/N=C/c1cccc(Br)c1)c1ccncc1
1 (yes)

Quick check, Primary QIM CellNb >= 200? Cc1cccc(/C=N/NC(=O)c2ccncc2)c1
1 (yes)

Quick check, Primary QIM CellNb >= 200? Cc1ccc(NC(=O)c2c(NC(=O)C(F)(F)F)sc3c2CCC3)c(C)c1
0 (no)

Quick check, Primary QIM CellNb >= 200? O=C(N/N=C/c1ccc(O)cc1O)c1ccncc1
1 (yes)

Quick check, Primary QIM CellNb >= 200? O=C(N/N=C/c1cc([N+](=O)[O-])ccc1O)c1ccncc1
1 (yes)

Quick check, Primary QIM CellNb >= 200? C/C(=N\NC(N)=S)c1ccccc1O
1 (yes)

Quick check, Primary QIM CellNb >= 200? O=C(Nc1ccc(Br)cc1)c1cc([N+](=O)[O-])cc([N+](=O)[O-])c1
1 (yes)
